- measured-on: Recombinant human integrin ανβ1 (Homo sapiens, UniProt P05556+P06756)
- Sequence (P06756 31-992 limits assumed): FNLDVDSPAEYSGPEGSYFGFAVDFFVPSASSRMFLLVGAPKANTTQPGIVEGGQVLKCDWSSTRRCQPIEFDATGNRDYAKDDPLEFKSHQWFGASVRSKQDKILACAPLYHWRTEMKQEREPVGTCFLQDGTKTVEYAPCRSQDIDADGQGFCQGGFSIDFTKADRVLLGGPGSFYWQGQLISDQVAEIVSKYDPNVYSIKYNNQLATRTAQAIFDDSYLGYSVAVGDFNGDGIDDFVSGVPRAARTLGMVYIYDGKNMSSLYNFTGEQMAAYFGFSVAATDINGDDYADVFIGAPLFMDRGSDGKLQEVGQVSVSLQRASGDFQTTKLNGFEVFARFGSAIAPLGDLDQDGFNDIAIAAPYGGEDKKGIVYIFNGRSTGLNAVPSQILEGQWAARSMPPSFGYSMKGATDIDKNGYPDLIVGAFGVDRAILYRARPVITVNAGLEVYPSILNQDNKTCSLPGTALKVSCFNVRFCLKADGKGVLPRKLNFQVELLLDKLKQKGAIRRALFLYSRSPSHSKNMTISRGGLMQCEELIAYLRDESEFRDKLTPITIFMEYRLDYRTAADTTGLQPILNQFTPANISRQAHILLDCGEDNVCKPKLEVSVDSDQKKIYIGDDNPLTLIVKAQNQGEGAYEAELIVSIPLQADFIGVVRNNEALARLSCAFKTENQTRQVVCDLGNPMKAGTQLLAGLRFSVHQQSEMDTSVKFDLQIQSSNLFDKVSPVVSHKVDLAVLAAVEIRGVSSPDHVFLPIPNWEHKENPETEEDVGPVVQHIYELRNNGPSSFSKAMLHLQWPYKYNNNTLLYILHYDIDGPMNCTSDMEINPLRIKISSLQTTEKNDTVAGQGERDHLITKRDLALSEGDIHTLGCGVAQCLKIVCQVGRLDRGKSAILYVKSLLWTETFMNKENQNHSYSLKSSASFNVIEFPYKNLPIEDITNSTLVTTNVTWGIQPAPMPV
- Sequence (P05556 21-728 limits assumed): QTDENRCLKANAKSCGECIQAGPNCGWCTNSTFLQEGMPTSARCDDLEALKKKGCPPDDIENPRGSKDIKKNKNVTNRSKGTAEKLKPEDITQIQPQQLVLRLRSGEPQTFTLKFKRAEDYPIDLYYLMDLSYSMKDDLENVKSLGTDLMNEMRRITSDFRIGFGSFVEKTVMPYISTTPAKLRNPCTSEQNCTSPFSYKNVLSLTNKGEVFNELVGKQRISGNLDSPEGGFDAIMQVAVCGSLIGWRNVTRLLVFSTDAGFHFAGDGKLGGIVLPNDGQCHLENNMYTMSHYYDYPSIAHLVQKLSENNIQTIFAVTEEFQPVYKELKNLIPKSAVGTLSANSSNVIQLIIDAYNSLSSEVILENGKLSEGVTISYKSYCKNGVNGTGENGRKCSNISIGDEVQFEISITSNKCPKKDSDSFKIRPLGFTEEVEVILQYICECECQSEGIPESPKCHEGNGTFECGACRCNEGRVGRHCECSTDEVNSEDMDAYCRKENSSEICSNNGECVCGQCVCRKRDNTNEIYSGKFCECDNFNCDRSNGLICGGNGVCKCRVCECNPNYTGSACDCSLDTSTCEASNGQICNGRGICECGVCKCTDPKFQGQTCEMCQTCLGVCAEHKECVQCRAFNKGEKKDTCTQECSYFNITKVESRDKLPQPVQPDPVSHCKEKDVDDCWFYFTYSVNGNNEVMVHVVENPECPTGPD
- assay-details: Solid Phase Receptor Assay (SPRA) for ανβ1 function
- condition-description: plate-bound human fibronectin; read-out: αvβ1 SPRA IC50
Counter-ions that a name gives are not always drawn.
readout-kind: IC50 (nM)

* Cn1nc(CC(CC(=O)O)c2cc(C#N)cc(C(F)(F)F)c2)cc1OCCc1ccc2c(n1)NCCC2 (stereo not shown) [Example 12] | 4.5
* COc1ccc(C(CC(=O)O)Cc2cc(OCCc3ccc4c(n3)NCCC4)n(C)n2)cc1F (stereo not shown) [Example 3] | 5
* CC(C)Oc1ccc(C(C)(C)C)cc1C(CC(=O)O)Cc1cc(OCCc2ccc3c(n2)NCCC3)n(C)n1 (stereo not shown) [Example 35, Trifluoroacetate] | 7.6
* COc1ccc(C#N)cc1C(CC(=O)O)Cc1cc(OCCc2ccc3c(n2)NCCC3)n(C)n1 (stereo not shown) [Example 46, Trifluoroacetate] | 8.1
